TESTED_SYSTEM: C171Q KasA acyl-enzyme mimic (Mycobacterium tuberculosis, UniProt P9WQD9, C171Q)
Assay type: binding, M. tuberculosis
MEASURED_PARAMETER: Slow Onset

For orientation, consider the following solved cases.
C=C/C(C)=C/[C@@]1(C)SC(=O)C(C(=O)CCCCc2ccc(-c3ccccc3)cc2)=C1O | No
C=C/C(C)=C/[C@@]1(C)SC(=O)C(CCc2ccc(Cl)cc2)=C1O | No
C=C/C(C)=C/[C@@]1(C)SC(=O)C(C(=O)CCC)=C1O | No
C=C/C(C)=C/[C@@]1(C)SC(=O)C(CCCCc2ccc(Br)cc2)=C1O | No

Could you report Slow Onset for every entry in the following list?
1. C=C/C(C)=C/[C@@]1(C)SC(=O)C=C1O [TLM2, 5R-(+)-3-Demethylthiolactomycin]
2. C=C/C(C)=C/[C@@]1(C)SC(=O)C(C(=O)CCCCCCCCCCCCCCC)=C1O
3. C=C/C(C)=C/[C@@]1(C)SC(=O)C(C(=O)OC)=C1O
4. C=C/C(C)=C/[C@@]1(C)SC(=O)C(CCCN=[N+]=[N-])=C1O
5. C=C/C(C)=C/[C@@]1(C)SC(=O)C(CC)=C1O [TLM3, 5R-(+)-3-Ethylthiolactomycin]
6. C=C/C(C)=C/[C@@]1(C)SC(=O)C(C(C)=O)=C1O
7. C=C/C(C)=C/[C@@]1(C)SC(=O)C(CCCCN=[N+]=[N-])=C1O
8. C=C/C(C)=C/[C@@]1(C)SC(=O)C(CCCCn2cc(CNC(=O)c3ccc(NS(=O)(=O)c4ccc(F)cc4)cc3)nn2)=C1O

1: No; 2: No; 3: No; 4: Yes; 5: Yes; 6: Yes; 7: Yes; 8: No

Could you report Slow Onset for every entry in the following list?
1. C=C/C(C)=C/[C@@]1(C)SC(=O)C=C1OCC(=O)NCCN=[N+]=[N-]
2. C=C/C(C)=C/[C@@]1(C)SC(=O)C(CCc2ccc(C)cc2)=C1O

1. No
2. No

---

TESTED_SYSTEM: C171Q KasA acyl-enzyme mimic (Mycobacterium tuberculosis, UniProt P9WQD9, C171Q)
Format: binding, M. tuberculosis
MEASURED_PARAMETER: Slow or Rapid onset of binding to C171QKasA (words in Ki* column)

For orientation, consider the following solved cases.
C=C/C(C)=C/[C@@]1(C)SC(=O)C(CC)=C1O [TLM3, 5R-(+)-3-Ethylthiolactomycin] | Slow,
C=C/C(C)=C/[C@@]1(C)SC(=O)C(CCC)=C1O [TLM4, 5R-(+)-3-Propylthiolactomycin] | Slow,
C=C/C(C)=C/[C@@]1(C)SC(=O)C(CCc2ccc(C)cc2)=C1O [TLM5] | Rapid
C=C/C(C)=C/[C@@]1(C)SC(=O)C=C1O [TLM2, 5R-(+)-3-Demethylthiolactomycin] | Rapid

// Slow or Rapid onset of binding to C171QKasA (words in Ki* column) (C171Q KasA acyl-enzyme mimic (Mycobacterium tuberculosis, UniProt P9WQD9, C171Q)) for C=C/C(C)=C/[C@@]1(C)SC(=O)C(CCCCc2ccc(-c3ccccc3)cc2)=C1O [TLM9] = Rapid

---

TESTED_SYSTEM: C171Q KasA acyl-enzyme mimic (Mycobacterium tuberculosis, UniProt P9WQD9, C171Q)
Type: binding, M. tuberculosis
MEASURED_PARAMETER: Slow Onset

For orientation, consider the following solved cases.
C=C/C(C)=C/[C@@]1(C)SC(=O)C(CCCCn2cc(CNC(=O)[C@H](O)C(C)(C)CO)nn2)=C1O | No
C=C/C(C)=C/[C@@]1(C)SC(=O)C(C(=O)C(F)(F)F)=C1O | Yes
C=C/C(C)=C/[C@@]1(C)SC(=O)C(CCCCc2ccc(F)cc2)=C1O | No
C=C/C(C)=C/[C@@]1(C)SC(=O)C(CCCCc2ccc(-c3ccccc3)cc2)=C1O | No
C=C/C(C)=C/[C@@]1(C)SC(=O)C(CCC)=C1O [TLM4, 5R-(+)-3-Propylthiolactomycin] | Yes

Could you report Slow Onset for every entry in the following list?
1. C=C/C(C)=C/[C@@]1(C)SC(=O)C(CCCCc2ccc(Cl)cc2)=C1O
2. C=C/C(C)=C/[C@@]1(C)SC(=O)C(C)=C1O [TLM, 5R-(+)-Thiolactomycin]
3. C=C/C(C)=C/[C@@]1(C)SC(=O)C(C(=O)c2ccccc2C(=O)O)=C1O

No
Yes
No

---

TESTED_SYSTEM: C171Q KasA acyl-enzyme mimic (Mycobacterium tuberculosis, UniProt P9WQD9, C171Q)
Type: binding, M. tuberculosis
MEASURED_PARAMETER: Slow or Rapid onset of binding to C171QKasA (words in Ki* column)

C=C/C(C)=C/[C@@]1(C)SC(=O)C(CCCCc2ccc(F)cc2)=C1O | Rapid
C=C/C(C)=C/[C@@]1(C)SC(=O)C(CCCCc2ccc(Cl)cc2)=C1O | Rapid
C=C/C(C)=C/[C@@]1(C)SC(=O)C(CCCCc2ccc(Br)cc2)=C1O | Rapid
C=C/C(C)=C/[C@@]1(C)SC(=O)C(C)=C1O [TLM, 5R-(+)-Thiolactomycin] | Slow,

These measurements were taken from patent US9056851B2.
